# TEST SUMMARY: in vivo
# Format: in vivo, Sprague–Dawley rats
# TEST SETTINGS: male, Sprague-Dawley, rat, in vivo; SD rats, single oral D7 4 mL/kg, plasma
# Method: Male Sprague–Dawley rats (∼250 g) purchased from Sino-British Sippr/BK Lab Animal, Ltd. (Shanghai, China) were housed in air-conditioned animal quarters with alternating 12 h light/dark cycles at a room temperature of 22°C±2°C and a relative humidity of 50%±10%. Commercial rat chow and water were given ad libitum. […] Standard curves, intra-batch accuracy, and precision for the quantification of the 15 compounds in the rat plasma samples were constructed similarly. […]
Threshold check on Cmax: strictly below 30 ng/mL is true (1); on or above 30 ng/mL is false (0).

# MOL SMILES, LABEL CLASS
rows = [
    ("CC(C)=CCc1cc2c(cc1O)oc(=O)c1c3ccc(O)cc3oc21", "true (1)"),
    ("O=c1ccc2ccc3occc3c2o1", "false (0)"),
    ("COc1c2ccoc2cc2oc(=O)ccc12", "true (1)"),
    ("COc1c2occc2cc2ccc(=O)oc12", "false (0)"),
    ("O=c1ccc2cc3ccoc3cc2o1", "false (0)"),
]

* * *

# TEST SUMMARY: in vivo
# Assay type: in vivo, Sprague–Dawley rats
# TEST SETTINGS: SD rats, single oral D7 4 mL/kg, LC-MS/MS, sampling up to 24 h
QUANTITY: Detection in rat plasma after D7 administration

# COMPOUND, MEASURED RESULT
data = [
    ("CCN1CC2(COC)C(O)CC(OC)C34C5CC6(O)C(OC)C(O)C(O)(C5C6OC(=O)c5ccccc5)C(C(OC)C23)C14 (stereo not shown)", "not detected"),
    ("CCN1C[C@]2(COC)[C@H](O)C[C@H](OC)[C@@]34[C@@H]5C[C@@]6(O)[C@H](OC(=O)c7ccccc7)[C@@H]5[C@@](OC(C)=O)([C@@H]([C@H](OC)[C@H]23)[C@@H]14)[C@@H](O)[C@@H]6OC", "not detected"),
    ("COc1c2ccoc2cc2oc(=O)ccc12", "measureable"),
    ("O=c1ccc2ccc3occc3c2o1", "measureable"),
]

* * *

In this section, each of the compounds is paired with its reported Vd/F.
# TEST SUMMARY: in vivo
# Type: in vivo, Sprague–Dawley rats
# TEST SETTINGS: male, Sprague-Dawley, rat, in vivo; SD rats, single oral D7 4 mL/kg; read-out: Vz/F

# MOL SMILES, UNITS OF MEASURE, Vd/F
rows = [
    ("COc1c2occc2cc2ccc(=O)oc12", "L/kg", 3.69),
    ("COc1c2ccoc2cc2oc(=O)ccc12", "L/kg", 2.93),
    ("CC(C)=CCc1cc2c(cc1O)oc(=O)c1c3ccc(O)cc3oc21", "L/kg", 5.87),
    ("O=c1ccc2ccc3occc3c2o1", "L/kg", 0.308),
    ("O=c1ccc2cc3ccoc3cc2o1", "L/kg", 0.384),
]

* * *

# TEST SUMMARY: in vivo
# Type: in vivo, Sprague–Dawley rats
# TEST SETTINGS: male, Sprague-Dawley, rat, in vivo; SD rats, single oral D7 4 mL/kg, plasma, non-compartmental; read-out: T1/2 (converted)
In this section, each of the molecules is paired with its reported half-life.

# MOLECULE, half-life [h]
rows = [
    ("O=c1ccc2ccc3occc3c2o1 [Isopsoralen, isopsoralen]", 3.53),
    ("COc1c2ccoc2cc2oc(=O)ccc12 [Bergapten, bergapten]", 4.14),
    ("O=c1ccc2cc3ccoc3cc2o1 [Psoralen, psoralen]", 3.18),
]

Recorded values, source paper PMC3585395.
